# subject_of_test: AP-2 complex subunit beta (Homo sapiens)
# experiment_notes: inhibitors of arrestin peptide binding to AP2, pilot screen, biochemical, validation set, GST-AP2 beads, flow cytometry (AID 504541);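 also: AP2 carries R879A mutation and is captured from E. coli lysate; bead-bound FITC arrestin peptide fluorescence measuring arrestin peptide binding to AP2; 0% = DMSO wells and 100% = excess unlabeled arrestin peptide control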
# details: FITC arrestin peptide, at 10 µM, stronger effect = higher value, AP2 beta2 appendage fragment, R879A mutant
A collection of compounds and their measured inhibition
// note: answer is a bare numeric in %

Answered cases to consult:
smiles_text	subject_of_test	inhibition, %
COC(=O)c1cc(C(=O)NCCC(C)C)cc([N+](=O)[O-])c1	AP-2 complex subunit beta (Homo sapiens)	-12
CC(C)Cn1c(=S)[nH]c2cc(C(=O)O)ccc2c1=O	AP-2 complex subunit beta (Homo sapiens)	-1.44
COc1cc2c(cc1O)CC[C@@H]1[C@@H]2CC[C@]2(C)[C@@H](O)CC[C@@H]12	AP-2 complex subunit beta (Homo sapiens)	-5.34

Field: next compound
Exercise: Given C#CCN(C)CCCOc1ccc(Cl)cc1Cl , state its recorded inhibition.
Solution: -2.33

====

# experiment_notes: LAP4-GFP expression modulators in yeast, confirmation, cell-based, cherry picks, flow cytometry, mother/daughter gates (AID 2271);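 also: ratio of sample to DMSO plate mean so 100% equals DMSO level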
# details: S. cerevisiae LAP4-GFP strain, 3 h, at 10 µM, 100 means same as DMSO control
The source made the active and inactive calls.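 Rule for the calls: active = GFP response above 150% of the DMSO control; inconclusive = fewer than 70 events counted in any yeast strain; inactive = the rest.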
Answer with one of the outcomes active, inactive

compound	assigned_class
COc1cccc2c1Oc1ncccc1N(C(=O)CCC(=O)NCc1ccc(C)cc1)C2	inactive
COc1ccc(NC(=O)Nc2ccon2)c(OC)c1	inactive

Exercise: Outcome logged for CSc1ccc(/C=C/C(=O)c2c(O)cc(C)oc2=O)cc1 in this assay:
Solution: inactive

Exercise: Recorded call for COC(=O)c1ccc(Cn2cc(/C=C\[N+](=O)[O-])c3ccccc32)o1 ?
Solution: inactive

Exercise: Tell me the assay call for COc1ccc(NC(=O)C2C3C=CC(C3)C2C(=O)NCc2ccco2)c(OC)c1 (stereo not drawn) please.
Solution: inactive

====

Recorded inhibition for the following compounds
# subject_of_test: AP-2 complex subunit beta (Homo sapiens) (UniProt P63010)
# Sequence (P63010 whole entry, looked up, one chain of several): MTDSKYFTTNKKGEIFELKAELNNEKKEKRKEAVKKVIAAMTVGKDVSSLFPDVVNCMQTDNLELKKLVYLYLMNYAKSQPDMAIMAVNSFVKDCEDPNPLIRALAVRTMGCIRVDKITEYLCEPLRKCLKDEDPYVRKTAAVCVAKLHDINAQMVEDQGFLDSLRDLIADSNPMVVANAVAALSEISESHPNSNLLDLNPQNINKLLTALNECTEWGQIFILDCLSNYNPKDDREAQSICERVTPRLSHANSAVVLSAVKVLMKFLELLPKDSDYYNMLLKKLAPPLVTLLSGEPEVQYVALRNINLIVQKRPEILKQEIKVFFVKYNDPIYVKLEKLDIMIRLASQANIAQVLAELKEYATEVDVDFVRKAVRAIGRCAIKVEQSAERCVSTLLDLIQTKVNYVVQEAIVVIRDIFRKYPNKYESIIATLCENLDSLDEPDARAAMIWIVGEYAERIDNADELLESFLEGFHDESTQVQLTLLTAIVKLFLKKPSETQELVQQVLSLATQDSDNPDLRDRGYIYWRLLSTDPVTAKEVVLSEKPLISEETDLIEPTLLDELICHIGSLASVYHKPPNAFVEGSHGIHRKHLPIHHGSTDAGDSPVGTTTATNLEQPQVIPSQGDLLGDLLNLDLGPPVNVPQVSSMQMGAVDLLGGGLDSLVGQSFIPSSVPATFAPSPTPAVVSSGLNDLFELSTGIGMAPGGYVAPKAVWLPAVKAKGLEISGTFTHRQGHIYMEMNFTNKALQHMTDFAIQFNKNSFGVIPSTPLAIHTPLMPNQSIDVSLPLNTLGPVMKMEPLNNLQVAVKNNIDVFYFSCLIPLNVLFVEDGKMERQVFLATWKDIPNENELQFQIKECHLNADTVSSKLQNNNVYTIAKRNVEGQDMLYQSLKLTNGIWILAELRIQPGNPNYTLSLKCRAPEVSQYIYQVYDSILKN
# experiment_notes: inhibitors of arrestin peptide binding to AP2, pilot screen, biochemical, validation set, GST-AP2 beads, flow cytometry (AID 504541);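 also: AP2 carries R879A mutation and is captured from E. coli lysate; bead-bound FITC arrestin peptide fluorescence measuring arrestin peptide binding to AP2; 0% = DMSO wells and 100% = excess unlabeled arrestin peptide control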
# details: FITC arrestin peptide, at 10 µM, stronger effect = higher value, AP2 beta2 appendage fragment, R879A mutant
Expressed in %, but write only the number.

Answered cases to consult:
compound	value_units	inhibition
Cc1ccc(P(=O)(CSC(=N)N)c2ccc(C)cc2)cc1	%	2.42
CC12CCC(C(=O)Nc3ccccc3Br)(C/C1=N\O)C2(C)C (stereo unspecified)	%	-0.26
COC(=O)c1[nH]c2ccc(F)cc2c1NC(=O)C1=COCCO1	%	1.47
CC(=O)c1c(N)nc2n(c1=O)CCCCC2	%	2.65
CCN(CC)CCOC(=O)C1(C2CCCCC2)CCCCC1	%	-6.04

Exercise: Which inhibition value belongs to COc1ccc(-c2c(C)c3ccc(OCC(C)=O)cc3oc2=O)cc1 ?
Solution: -9.08

====

# experiment_notes: LAP4-GFP expression modulators in yeast, confirmation, cell-based, cherry picks, flow cytometry, mother/daughter gates (AID 2271);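 also: ratio of sample to DMSO plate mean so 100% equals DMSO level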
# details: S. cerevisiae LAP4-GFP strain, 3 h, measured here: mother cell gate response, at 10 µM, stronger effect = higher value, 100 means same as DMSO control
quantity_measured: GFP response relative to DMSO (%)
Just the number in %, nothing appended.

Known GFP response relative to DMSO results, listed for orientation:
compound	GFP response relative to DMSO (%)
O=C(O)COc1c(-c2ccc(Cl)cc2)oc2ccccc2c1=O	99.3
CNC(=O)/C(C#N)=C/c1c(N2CCCCCC2)nc2ccccn2c1=O	106
COc1cc(NC(=O)c2ccc(Br)cc2)ccc1NC(=O)c1cc2ccccc2o1	98.3
COc1ccc(S(=O)(=O)NCC(=O)N(CC(=O)NCc2ccco2)Cc2ccc(F)cc2)cc1	100
CCCN(CCC)S(=O)(=O)c1ccc(C(=O)Nc2nnc(-c3cc(OC)cc(OC)c3)o2)cc1	91.9
O=C1C(Cl)=C(NCCc2ccccc2)C(=O)N1CCc1ccccc1	101
CCc1ccc(NC(=O)c2nc(S(=O)(=O)Cc3ccccc3)ncc2Cl)cc1	124
CCOc1cccc(C(=O)Nc2ccc(NC(=O)c3cc4ccccc4o3)c(OC)c2)c1	90.8

Exercise: Quick check: GFP response relative to DMSO of O=C(N/N=C/c1ccccc1Cl)c1ccc(F)cc1 ?
Solution: 112

Exercise: Field request: GFP response relative to DMSO | item: CS(=O)(=O)c1nc(-c2ccccc2)cc(C(F)(F)F)n1
Solution: 189

====

# experiment_notes: RPL19A-GFP modulators, yeast TOR pathway, confirmation, cell-based, S. cerevisiae, flow cytometry, cherry picks, mother/daughter gates (AID 2270)
# details: S. cerevisiae RPL19A-GFP strain, 3 h, measured here: mother cell gate, at 10 µM, stronger effect = lower value, 100 = same GFP as DMSO wells
quantity_measured: GFP response vs DMSO (%)
Express it in %; write the number only.

The following molecules have reported results that may help.
molecule	quantity_measured	result_number
CCOC(=O)Cc1csc(NC(=O)CSc2nnc(-c3ccc(C)cc3)o2)n1	GFP response vs DMSO	101
CC(C(=O)NCCc1ccc(F)cc1)N1CCN(Cc2ccccc2)CC1 (stereo not drawn)	GFP response vs DMSO	96.8
Oc1ccc(C2Nc3cccc4cccc(c34)N2)cc1	GFP response vs DMSO	99.4
O=C(/C(=C/c1ccccc1)n1cncn1)c1ccc(Cl)cc1Cl	GFP response vs DMSO	93.5
Cc1ccc(-c2csc3ncn(Cc4ccc(C(=O)O)cc4)c(=O)c23)cc1C	GFP response vs DMSO	99

Exercise: Which GFP response vs DMSO is reported for this molecule? COC(=O)c1ccc(Sc2ccccn2)c([N+](=O)[O-])c1
Solution: 97.7

====

Measured GFP response, % of DMSO values are reported for all entries that follow.
# experiment_notes: modulators of CIT2-GFP expression in yeast, confirmation, S. cerevisiae, GFP fusion, cherry picks, mother/daughter gates (AID 2274)
# details: S. cerevisiae CIT2-GFP strain, flow cytometry, 3 h; at 10 µM; stronger effect = higher value
Express your answer in %, writing the number without its unit.

Solved cases (8 shown):
molecule	GFP response, % of DMSO / %
O=C(Nc1nccs1)C1CCCN1S(=O)(=O)c1ccc(F)cc1 (configuration not stated)	110
Cc1ccc(S(=O)(=O)c2ncccc2N)cc1	101
O=C(COc1ccccc1)NNC(=S)NC(=O)c1ccccc1	108
CSc1ccc(/C=C/C(=O)c2ccc(NC(=O)C(C)C)cc2)cc1	92.6
CC1CCc2c(C(=O)NCc3cccnc3)csc2C1 (configuration not stated)	87.2
O=C(Nc1ccccc1)c1nnsc1S(=O)(=O)c1ccc(Cl)cc1	95.5
CCCCn1c(-c2csc3c2CCCC3)n[nH]c1=S	80.6
NC(=O)CSCc1c(Cl)cccc1Cl	93.9

Continue with the next molecule.
Exercise: Field request: GFP response, % of DMSO | item: COc1ccc(C2CC(c3ccccc3)=NN2S(=O)(=O)c2ccc(C)cc2)c(OC)c1 (configuration not stated)
Solution: 102

====

# experiment_notes: modulators of CIT2-GFP expression in yeast, confirmation, S. cerevisiae, GFP fusion, cherry picks, mother/daughter gates (AID 2274)
# details: S. cerevisiae CIT2-GFP strain, flow cytometry, 3 h; at 10 µM; stronger effect = higher value
quantity_measured: GFP response, % of DMSO (%)
Form entry: value (%) — number only.

molecule	value_units	GFP response, % of DMSO
Cc1noc2ncnc(Sc3c(Cl)cccc3Cl)c12	%	105

Exercise: Suppose we examine the molecule Cc1nn2c(N3CCOCC3)c3c(nc2c1-c1ccccc1)CCCC3 ; what GFP response, % of DMSO value has been reported?
Solution: 103

Exercise: Recorded GFP response, % of DMSO of Cc1nc2ccccc2n2c(O)c(CC(=O)O)cc12 , please.
Solution: 92.1

Exercise: Would you mind telling me what GFP response, % of DMSO value was observed for CCCCNC(=O)c1c(O)c2cccc3c2n(c1=O)CCC3 ?
Solution: 97.8

Exercise: # query: GFP response, % of DMSO of entry Cc1cc(O)c(C(=O)/C=C/c2ccccc2O)c(=O)o1
Solution: 89.8

Exercise: Please look up its GFP response, % of DMSO: NC1=NC(=O)C(CC(=O)c2ccc(Cl)cc2)S1 (stereo unspecified)
Solution: 96.4

Exercise: I would be grateful if you could share the reported GFP response, % of DMSO for COc1ccc(C(=O)ON=C2CCN(c3ccc([N+](=O)[O-])cc3)CC2)cc1 .
Solution: 108

Exercise: Endpoint output: GFP response, % of DMSO of Cc1cc(C)c(S(=O)(=O)ON2C(=O)c3ccccc3C2=O)cc1C . Value?
Solution: 102

Exercise: Fill blank: measured GFP response, % of DMSO of the molecule Oc1c(CN2CCCCC2)cc(Br)c2cccnc12 is ____.
Solution: 102

Exercise: // returns reported GFP response, % of DMSO for input COc1cc(/C=C/c2ccc3c(Br)cc(Br)c(O)c3n2)ccc1O
Solution: 99.7

Exercise: What value of GFP response, % of DMSO has been recorded for this entry: CCOc1ccc(-c2nc(-c3ccc(OC)cc3)no2)cc1OCC
Solution: 99.3

Exercise: Value lookup for GFP response, % of DMSO; key = COc1ccc(OC)c(CNC(=O)CCC(=O)N2Cc3cccc(OC)c3Oc3ncccc32)c1
Solution: 102

Exercise: Value lookup for GFP response, % of DMSO; key = Cc1cccn2c(=O)c(/C=C(\C#N)C(=O)NCc3ccco3)c(N3CCC(C(N)=O)CC3)nc12
Solution: 92.2

Exercise: Requested field: GFP response, % of DMSO. Item: CCCCc1nnc(NC(=O)c2nc3nccc(C)n3n2)s1
Solution: 109

Cited source for all entries: PubChem BioAssay
